Origin of measurements: patent US20250154283A1

Target: T1, biotinylated human VWF cysteine knot (CK) domain construct (human, UniProt P04275 2724-2813, biotinylated in vitro (BirA) on the biotinylation tag; one N-glycan)
T1 construct: Expressed in HEK293 EBNA cells; disulfide-linked homodimer; also called human VWF CK; human VWF CK domain; not shown: in vitro biotinylation tag, HRV-3C site and 3 VWF residues before the CK domain
Experiment: SPR, scFv captured via anti-SV5, CK domain injected, pH 5.5, apparent Kd;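 further: scFvs from crude yeast supernatants captured on chip-bound anti-SV5 antibody, Kd computed as koff divided by kon, dimeric CK construct likely makes affinity appear higher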
readout_name: Kd (nM)
Answer with a number only, understood to be in nM.

**Query** Quick check: Kd of 4166_Lib4_scFv (scFv, VH-linker-VL; not shown: C-terminal 3xFLAG and SV5 tags) scFv: QVQLQESGPGLVKPSQTLSLTCTVSGESFSGHFWSWIRQPPGKGLEWIGYISQSGRTDYNPSLKSRVTMSVDTSKNQFSLKVNSVTAADTAVYYCARTLPRIQLWSPRGAFDIWGQGTMVTVSSSGGSTITSYNVYYTKLSSSGTEIVMTQSPATLSLSPGERATLSCRASQSLGRSLAWYQQKPGQAPRLLIYDASHRATGIPARFSGSGSGTDFTLTISSLEPEDFAVYYCQQYVSYPLTFGGGTKVEIK ?
**Result** 0.567

**Query** Please give the measured Kd for this binder: 27_Lib4_scFv (scFv, VH-linker-VL; not shown: C-terminal 3xFLAG and SV5 tags) scFv: QVQLQESGPGLVKPSQTLSLTCTVSGASFGDHYWSWIRQPPGKGLEWIGYIDATGSIDYNPSLKSRVTMSVDTSKNQFSLKVNSVTAADTAVYYCARVASYYYYMDVWGKGTTVTVSSSGGSTITSYNVYYTKLSSSGTEIVMTQSPATLSLSPGERATLSCRASQSITGSYLAWYQQKPGQAPRLLIYGASDRAPGIPARFSGSGSGTDFTLTISSLEPEDFAVYYCQQYGSFPYTFGGGTKVEIK
**Result** 0.443
